System: HepG2
measurementDescription: cytotoxicity call (relative viability < 0.9)
measurementParameters: 10 µM
Among all 39,000 compounds or so, about 3,300 (8.5%) were called active. Only a selection was taken, and actives are over-represented in it overall.
Outcomes you can answer with include only these: True = active, False = inactive

The following compounds have reported results that may help.
Cc1ccc(S(=O)(=O)Nc2ccc3c(c2)C(=O)N([C@H](C)CO)C[C@@H](C)[C@H](CN(C)Cc2ccc(Cl)c(Cl)c2)OCCCC[C@@H](C)O3)cc1 :: True
CCS(=O)(=O)N1C[C@]2(CCN(CC2)S(=O)(=O)c2cn(cn2)C)c2c(n(c3cc(ccc23)OC)C)[C@H]1CO :: False
CC(C)(C)c1ccc(CSCc2nc3ccccc3[nH]2)cc1 :: True
C[C@H](CO)N1C[C@H](C)[C@H](CN(C)C(=O)Nc2cccc3ccccc23)Oc2ccc(NS(=O)(=O)c3ccccc3)cc2C1=O :: False
C[C@@H]1CN([C@H](C)CO)C(=O)c2cc(NS(C)(=O)=O)ccc2O[C@@H]1CN(C)Cc1ccc(C(=O)Nc2ccccc2N)cc1 :: False

Short answer needed: outcome of this test for CCOC(=O)CN(C#N)c1nc(C)cc(C)n1 ?
False

Per the assay record, what outcome was assigned to C[C@@H]1CN([C@H](C)CO)C(=O)c2cc(NS(=O)(=O)c3ccccc3)ccc2O[C@H]1CN(C)C(=O)Nc1cccc2ccccc12 ?
False

Give the logged outcome of this assay for the following compound: Cc1noc(C)c1NC(=O)Nc1ccc2c(c1)C(=O)N([C@H](C)CO)C[C@H](C)[C@H](CN(C)C(=O)C1CCCCC1)OCCCC[C@@H](C)O2
False

Outcome logged for COCCNC(=O)C[C@@H]1CC[C@H]2[C@@H](COC[C@@H](O)CN2S(=O)(=O)c2ccccc2F)O1 in this assay:
False

So what was the verdict on C[C@@H]1CN([C@@H](C)CO)C(=O)CCCn2cc(nn2)CO[C@H]1CN(C)S(=O)(=O)c1cccc(C#N)c1 in this test?
False

What did the test return for Nc1c[nH]ccc1=O ?
False

Can you look up the reported call for CO[C@H]1CN(C)C(=O)c2cc(NS(=O)(=O)CC(F)(F)F)ccc2OC[C@H](C)N(C(=O)c2ccc3c(c2)OCO3)C[C@H]1C for me?
False

// outcome(item) with item = COc1ccc([C@@H](NC(=O)C2CCN(CCOc3ccc(Cl)cc3Cl)CC2)c2ccccn2)cc1
False

Origin of values: the antibiotic and cytotoxicity screens of Wong et al. (2023)
